Here's what we have: log10 of IC50 numbers for Glucagon receptor (Mus musculus, UniProt Q61606).
Field: value | Transform: log10 | Quantity: IC50 | Unit: nM

1. CC(C)(C)CC[C@H](c1ccc(C(=O)NCc2nn[nH]n2)cc1)N1C(=O)C(c2cccc(Cl)c2)=N[C@]12CC[C@@H](C(C)(C)C)CC2    2.11

Incoming: // log10 of IC50 lookup, key: `CC(C)(C)CC[C@H](c1ccc(C(=O)NCc2nn[nH]n2)cc1)N1C(=O)C(c2cc(F)cc(Cl)c2)=N[C@]12CC[C@@H](C(C)(C)C)CC2`
Outgoing: 2.20

Incoming: // log10 of IC50 lookup, key: `C[C@H](c1ccc(C(=O)NCCC(=O)O)cc1)N1C(=O)C(c2cc(F)cc(Cl)c2)=N[C@]12CC[C@@H](C(C)(C)C)CC2`
Outgoing: 2.91

Incoming: // log10 of IC50 lookup, key: `C[C@H](c1ccc(C(=O)NCCC(=O)O)cc1)N1C(=O)C(c2ccc(OC(F)(F)F)cc2)=N[C@]12CC[C@@H](C(C)(C)C)CC2`
Outgoing: 3.90

Incoming: // log10 of IC50 lookup, key: `C[C@H](c1ccc(C(=O)NCCC(=O)O)cc1)N1C(=O)C(c2cc(Cl)ccc2F)=N[C@]12CC[C@@H](C(C)(C)C)CC2`
Outgoing: 3.66

Incoming: // log10 of IC50 lookup, key: `C[C@H](c1ccc(C(=O)NCCC(=O)O)cc1)N1C(=O)C(c2ccc(F)c(Cl)c2)=N[C@]12CC[C@@H](C(C)(C)C)CC2`
Outgoing: 3.36

---

# Assay Overview: Oral bioavailability in monkey at 3 mg/kg
# Format: ADME, organism-based, Macaca mulatta
# Test Conditions: rhesus monkey, in vivo
Test Readout: bioavailability (%)
Supply the numeric figure in %, leaving out any unit text.

Incoming: // bioavailability lookup, key: `CC(C)(C)CC[C@H](c1ccc(C(=O)NCc2nn[nH]n2)cc1)N1C(=O)C(c2cc(Cl)cc(Cl)c2)=N[C@]12CC[C@@H](C(C)(C)C)CC2`
Outgoing: 49

---

# Test System: Glucagon-like peptide 1 receptor (Homo sapiens, UniProt P43220)
# Sequence (P43220 whole entry): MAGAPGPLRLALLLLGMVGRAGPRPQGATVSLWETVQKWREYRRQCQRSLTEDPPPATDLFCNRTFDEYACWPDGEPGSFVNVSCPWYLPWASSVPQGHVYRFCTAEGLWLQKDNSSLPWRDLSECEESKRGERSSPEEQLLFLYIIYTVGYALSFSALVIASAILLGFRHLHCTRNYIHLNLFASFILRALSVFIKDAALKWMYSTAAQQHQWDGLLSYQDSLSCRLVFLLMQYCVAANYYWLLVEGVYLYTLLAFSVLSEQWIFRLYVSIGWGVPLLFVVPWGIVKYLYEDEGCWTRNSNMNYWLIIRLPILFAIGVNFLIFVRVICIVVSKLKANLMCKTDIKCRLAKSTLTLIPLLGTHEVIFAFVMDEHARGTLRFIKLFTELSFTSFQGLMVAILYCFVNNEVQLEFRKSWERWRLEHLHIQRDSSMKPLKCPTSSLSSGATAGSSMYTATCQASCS
# Assay Overview: Antagonist activity at human GLP-1R expressed in CHO cells assessed as inhibition of GLP-1-stimulated cAMP production preincubated for 30 mins followed by GLP-1 induction measured after 45 mins by LANCE assay
pIC50: −log10 of the molar value.
Reported pIC50 values are given for each entry in this list.

Example entries and their recorded answers appear below.
1) C[C@H](c1ccc(C(=O)NCCC(=O)O)cc1)N1C(=O)C(c2cc(Cl)cc(Cl)c2)=N[C@]12CC[C@@H](C(C)(C)C)CC2    5.19
2) CC(C)(C)CC[C@H](c1ccc(C(=O)NCC(=O)O)cc1)N1C(=O)C(c2cc(Cl)cc(Cl)c2)=N[C@]12CC[C@@H](C(C)(C)C)CC2    < 5.00
3) CC(C)(C)CC[C@H](c1ccc(C(=O)NC[C@H](O)C(=O)O)cc1)N1C(=O)C(c2cc(Cl)cc(Cl)c2)=N[C@]12CC[C@@H](C(C)(C)C)CC2    < 5.00
4) CC(C)(C)CC[C@H](c1ccc(C(=O)NCc2nn[nH]n2)cc1)N1C(=O)C(c2cc(Cl)cc(Cl)c2)=NC1(C)C    < 5.00
5) CC(C)(C)CC[C@H](c1ccc(C(=O)NCc2nn[nH]n2)cc1)N1C(=O)C(c2ccc(C(F)(F)F)cc2)=N[C@]12CC[C@@H](C(C)(C)C)CC2    < 5.00

Continue with the next compound.
Incoming: // pIC50 lookup, key: `COc1ccc(C2=N[C@]3(CC[C@@H](C(C)(C)C)CC3)N([C@H](CCC(C)(C)C)c3ccc(C(=O)NCc4nn[nH]n4)cc3)C2=O)cc1`
Outgoing: < 5.00

---

# Assay Overview: Volume of distribution at steady state in mouse at 3 mg/kg, iv
# Format: ADME, organism-based
# Set-up: dose 3 mg/kg, route intravenous
# Test Conditions: in vivo, read-out: Vdss
Test Readout: Vd (L/kg)
Supply the numeric figure in L/kg, leaving out any unit text.

Incoming: // Vd lookup, key: `CC(C)(C)CC[C@H](c1ccc(C(=O)NCc2nn[nH]n2)cc1)N1C(=O)C(c2cc(Cl)cc(Cl)c2)=N[C@]12CC[C@@H](C(C)(C)C)CC2`
Outgoing: 1.3

---

# Test System: UniProt:Q61606
So basically: is IC50 under 2 µM? Then true (1). Not under? Then false (0).

1) C[C@H](c1ccc(C(=O)NCCC(=O)O)cc1)N1C(=O)C(c2cccc(Cl)c2)=N[C@]12CC[C@@H](C(C)(C)C)CC2    false (0)
2) C[C@H](c1ccc(C(=O)NCCC(=O)O)cc1)N1C(=O)C(c2ccccc2)=N[C@]12CC[C@@H](C(C)(C)C)CC2    false (0)
3) C[C@H](c1ccc(C(=O)NCCC(=O)O)cc1)N1C(=O)C(c2ccc(C(F)(F)F)cc2)=N[C@]12CC[C@@H](C(C)(C)C)CC2    false (0)
4) CC(C)(C)CC[C@H](c1ccc(C(=O)NCc2nn[nH]n2)cc1)N1C(=O)C(c2cc(Cl)cc(Cl)c2)=N[C@]12CC[C@@H](C(C)(C)C)CC2    true (1)
5) CC(C)(C)[C@H]1CC[C@]2(CC1)N=C(c1cc(Cl)cc(Cl)c1)C(=O)N2CCc1ccc(C(=O)NCCC(=O)O)cc1    true (1)

Incoming: Threshold test, IC50 < 2 µM: `C[C@H](c1ccc(C(=O)NCCC(=O)O)cc1)N1C(=O)C(c2cccc(C3CC3)c2)=N[C@]12CC[C@@H](C(C)(C)C)CC2`
Outgoing: true (1)

Incoming: Threshold test, IC50 < 2 µM: `CC(C)(C)CC[C@H](c1ccc(C(=O)NCc2nn[nH]n2)cc1)N1C(=O)C(c2cccc(C(F)(F)F)c2)=N[C@]12CC[C@@H](C(C)(C)C)CC2`
Outgoing: true (1)

---

# Test System: Glucagon receptor (Homo sapiens, UniProt P47871)
# Sequence (P47871 whole entry): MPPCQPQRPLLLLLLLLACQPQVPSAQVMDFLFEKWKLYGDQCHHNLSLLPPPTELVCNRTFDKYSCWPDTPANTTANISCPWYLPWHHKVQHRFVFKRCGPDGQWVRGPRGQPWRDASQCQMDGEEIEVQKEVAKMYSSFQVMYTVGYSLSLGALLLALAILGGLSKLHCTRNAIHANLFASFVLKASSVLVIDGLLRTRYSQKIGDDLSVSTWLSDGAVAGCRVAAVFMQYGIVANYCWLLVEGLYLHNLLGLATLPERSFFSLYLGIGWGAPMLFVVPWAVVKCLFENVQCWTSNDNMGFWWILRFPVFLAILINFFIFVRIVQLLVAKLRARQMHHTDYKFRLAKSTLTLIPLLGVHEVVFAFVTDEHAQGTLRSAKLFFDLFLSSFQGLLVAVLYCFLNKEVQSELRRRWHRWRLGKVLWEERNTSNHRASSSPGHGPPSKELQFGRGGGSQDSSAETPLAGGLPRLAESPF
# Assay Overview: biochemical
# Assay type: cell-based, CHO
# Description: Displacement of [125I]-glucagon from recombinant human GCGR expressed in CHO cells after 60 mins by scintillation counting analysis
So basically: is IC50 under 40 nM? Then Met. Not under? Then Not met.

Incoming: Threshold test, IC50 < 40 nM: `CC(C)(C)[C@H]1CC[C@]2(CC1)N=C(c1cc(Cl)cc(Cl)c1)C(=O)N2[C@H](CCC(F)(F)F)c1ccc(C(=O)NCc2nn[nH]n2)cc1`
Outgoing: Met

Incoming: Threshold test, IC50 < 40 nM: `COc1ccc(C2=N[C@]3(CC[C@@H](C(C)(C)C)CC3)N([C@H](CCC(C)(C)C)c3ccc(C(=O)NCc4nn[nH]n4)cc3)C2=O)cc1`
Outgoing: Met

Incoming: Threshold test, IC50 < 40 nM: `C[C@H](c1ccc(C(=O)NCCC(=O)O)cc1)N1C(=O)C(c2ccccc2)=N[C@]12CC[C@@H](C(C)(C)C)CC2`
Outgoing: Not met

Incoming: Threshold test, IC50 < 40 nM: `C[C@H](c1ccc(C(=O)NCCC(=O)O)cc1)N1C(=O)C(c2ccc(OC(F)(F)F)cc2)=N[C@]12CC[C@@H](C(C)(C)C)CC2`
Outgoing: Not met

Incoming: Threshold test, IC50 < 40 nM: `C[C@H](c1ccc(C(=O)NCCC(=O)O)cc1)N1C(=O)C(c2ccccc2F)=N[C@]12CC[C@@H](C(C)(C)C)CC2`
Outgoing: Not met

Incoming: Threshold test, IC50 < 40 nM: `CC(C)(C)CC[C@H](c1ccc(C(=O)NCc2nn[nH]n2)cc1)N1C(=O)C(c2cncc(Cl)c2)=N[C@]12CC[C@@H](C(C)(C)C)CC2`
Outgoing: Met

Incoming: Threshold test, IC50 < 40 nM: `CC(C)(C)CC[C@H](c1ccc(C(=O)NCc2nn[nH]n2)cc1)N1C(=O)C(c2cc(Cl)cc(Cl)c2)=N[C@]12CC[C@@H](C)CC2`
Outgoing: Met

---

# Assay Overview: Oral bioavailability in dog at 5 mg/kg
# Format: ADME, organism-based, Canis lupus familiaris
# Test Conditions: in vivo
Test Readout: bioavailability (%)
Supply the numeric figure in %, leaving out any unit text.

Incoming: // bioavailability lookup, key: `CC(C)(C)CC[C@H](c1ccc(C(=O)NCc2nn[nH]n2)cc1)N1C(=O)C(c2cc(Cl)cc(Cl)c2)=N[C@]12CC[C@@H](C(C)(C)C)CC2`
Outgoing: 32

---

# Test System: Glucagon-like peptide 1 receptor (Homo sapiens, UniProt P43220)
# Test Conditions: CHO, at 10 µM
# Description: Antagonist activity at human GLP-1R expressed in CHO cells assessed as inhibition of GLP-1-stimulated cAMP production at 10 uM preincubated for 30 mins followed by GLP-1 induction measured after 45 mins by LANCE assay relative to control
Reported inhibition values are given for each entry in this list.

Example entries and their recorded answers appear below.
1) CC(C)(C)[C@H]1CC[C@]2(CC1)N=C(c1cccc(Cl)c1)C(=O)N2Cc1ccc(C(=O)NCCC(=O)O)cc1    < 50%
2) C[C@H](c1ccc(C(=O)NCc2nnn[nH]2)cc1)N1C(=O)C(c2cc(Cl)cc(Cl)c2)=N[C@]12CC[C@@H](C(C)(C)C)CC2    9%
3) CC(C)(C)[C@H]1CC[C@]2(CC1)N=C(c1ccccc1Cl)C(=O)N2Cc1ccc(C(=O)NCCC(=O)O)cc1    < 50%

Incoming: // inhibition lookup, key: `CC(C)(C)[C@H]1CC[C@]2(CC1)N=C(c1ccccc1F)C(=O)N2Cc1ccc(C(=O)NCCC(=O)O)cc1`
Outgoing: < 50%
